Target: LepB Δ2-76 (Escherichia coli)
Construct: made in house; host or cells: E. coli BL21(DE3)
Sequence (P00803 76-324, looked up, stated change not applied): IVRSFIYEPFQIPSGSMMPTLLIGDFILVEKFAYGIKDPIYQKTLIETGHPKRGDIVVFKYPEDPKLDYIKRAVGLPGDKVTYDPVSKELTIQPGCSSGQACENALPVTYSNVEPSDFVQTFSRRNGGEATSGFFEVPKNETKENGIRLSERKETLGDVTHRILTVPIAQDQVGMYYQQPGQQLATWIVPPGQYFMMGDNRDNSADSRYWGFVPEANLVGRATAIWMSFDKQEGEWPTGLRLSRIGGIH
Experiment: biochemical
Ends that are not written are not given here.
property name: IC50
Remember to quote the unit after the number.

# substance, IC50
records = [
    ("GGGTWAAIE [Peptide 06]", "4520 µM"),
]

Q. I'd like to know its IC50. The substance in question is GGTWAAFE [Peptide 05]
A. 967 µM

Q. I'd like to know its IC50. The substance in question is VGGGTWAAFETL [Peptide 02]
A. 1010 µM

Q. I'd like to know its IC50. The substance in question is VGGGTWAAIEEGKL [Peptide 04]
A. 1680 µM

Q. I'd like to know its IC50. The substance in question is GGGTWAAFEEGK [Peptide 01]
A. 1600 µM

Q. I'd like to know its IC50. The substance in question is GGTWAAFNDV [Peptide 03]
A. 1160 µM

Q. I'd like to know its IC50. The substance in question is TWAAFN [Peptide 07]
A. 1970 µM

Q. I'd like to know its IC50. The substance in question is TWAAIE [Peptide 08]
A. 647 µM

Data provenance is paper PMC10269814.
